# measurement_target: UniProtKB P30542
# Sequence (P30542 whole entry): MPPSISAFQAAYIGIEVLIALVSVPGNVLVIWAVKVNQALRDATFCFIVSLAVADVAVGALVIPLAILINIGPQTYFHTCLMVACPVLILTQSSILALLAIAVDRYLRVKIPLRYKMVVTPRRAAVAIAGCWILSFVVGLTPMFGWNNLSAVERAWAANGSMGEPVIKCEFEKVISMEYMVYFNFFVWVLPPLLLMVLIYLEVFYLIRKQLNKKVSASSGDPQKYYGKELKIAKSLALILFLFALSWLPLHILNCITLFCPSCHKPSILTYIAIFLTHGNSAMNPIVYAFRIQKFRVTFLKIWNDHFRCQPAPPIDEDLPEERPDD
# assay_explanation: Displacement of [3H]DPCPX from human adenosine A1 receptor expressed in CHO cells
pIC50: −log10 of the molar value.
readout_label: pIC50

Use the examples below as a reference point.
chem_smiles	pIC50
Cn1c(=O)c2[nH]c(-c3ccc(S(=O)(=O)N4CCN(Cc5cccc(F)c5)CC4)cc3)cc2n(C)c1=O	6.82
Cn1c(=O)c2[nH]c(-c3ccc(S(=O)(=O)N4CCN(Cc5ccc(Cl)s5)CC4)cc3)cc2n(C)c1=O	6.99
Cn1c(=O)c2[nH]c(-c3ccc(S(=O)(=O)NCCc4ccccn4)cc3)cc2n(C)c1=O	6.82
Cn1c(=O)c2[nH]c(-c3ccc(S(=O)(=O)N4CCN(Cc5ccc(F)cc5F)CC4)cc3)cc2n(C)c1=O	6.90

(P) CCCn1c(=O)c2[nH]c(-c3ccc(S(=O)(=O)NCCc4ccccn4)cc3)cc2n(C)c1=O
(Q) Cn1c(=O)c2[nH]c(-c3ccc(S(=O)(=O)Nc4ccccn4)cc3)cc2n(C)c1=O
Prompt: Hey, between P and Q which has a smaller measured pIC50? Response format: the label of the selected entry.
Response: P
